Attribution: the kinase profiling compilation of Christmann-Franck et al. (2016)

System: AKT2 (human), P31751 [S474D]
Sequence (P31751 whole entry S474D, looked up): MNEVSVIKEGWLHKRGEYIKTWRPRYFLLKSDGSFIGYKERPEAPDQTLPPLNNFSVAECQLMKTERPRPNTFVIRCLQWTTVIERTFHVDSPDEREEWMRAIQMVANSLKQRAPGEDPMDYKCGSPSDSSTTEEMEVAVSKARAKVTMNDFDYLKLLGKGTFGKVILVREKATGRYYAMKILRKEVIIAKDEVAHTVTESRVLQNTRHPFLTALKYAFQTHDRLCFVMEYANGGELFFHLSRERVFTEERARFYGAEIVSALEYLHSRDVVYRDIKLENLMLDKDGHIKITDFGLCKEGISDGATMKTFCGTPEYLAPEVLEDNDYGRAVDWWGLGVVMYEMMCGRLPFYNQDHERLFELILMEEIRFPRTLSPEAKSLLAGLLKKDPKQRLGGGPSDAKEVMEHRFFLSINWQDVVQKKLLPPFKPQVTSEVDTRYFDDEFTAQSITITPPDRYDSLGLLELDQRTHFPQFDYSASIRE
Assay: radiometric filter-binding kinase assay
Details: compound 1.0 µM
This listing pairs molecules with measured residual activity.
Lab note: write values as number then unit, every time.

These recorded examples may help you get a feel for the data.
- Structure smiles: "NC(=O)c1cc(-c2ccnc(NC3CCCCC3)c2)nc(N2CCNCC2)c1"
  Property measured: "residual activity"
  Test value: "57%"
- Structure smiles: "Cc1cccc(-c2nn(C(=S)Nc3ccccc3)cc2-c2ccnc3ccccc23)n1"
  Property measured: "residual activity"
  Test value: "96%"
- Structure smiles: "N#Cc1c(C2CCNCC2)cc(-c2c(O)cccc2OCC2CC2)nc1N"
  Property measured: "residual activity"
  Test value: "85%"
- Structure smiles: "COc1cc2ncn(-c3cc(OCc4ccccc4S(C)(=O)=O)c(C#N)s3)c2cc1OC"
  Property measured: "residual activity"
  Test value: "72%"
- Structure smiles: "NC(=O)c1cc2c(-c3cccc(-c4ccccc4)c3)cnc(N)c2s1"
  Property measured: "residual activity"
  Test value: "88%"

In: Can you share its residual activity? I mean this molecule: Cc1cccc(Nc2nn(C)c3ncnc(N)c23)c1
Out: 95%

----------
Target: SIK2 (human) (UniProt Q9H0K1)
Sequence (Q9H0K1 whole entry, looked up): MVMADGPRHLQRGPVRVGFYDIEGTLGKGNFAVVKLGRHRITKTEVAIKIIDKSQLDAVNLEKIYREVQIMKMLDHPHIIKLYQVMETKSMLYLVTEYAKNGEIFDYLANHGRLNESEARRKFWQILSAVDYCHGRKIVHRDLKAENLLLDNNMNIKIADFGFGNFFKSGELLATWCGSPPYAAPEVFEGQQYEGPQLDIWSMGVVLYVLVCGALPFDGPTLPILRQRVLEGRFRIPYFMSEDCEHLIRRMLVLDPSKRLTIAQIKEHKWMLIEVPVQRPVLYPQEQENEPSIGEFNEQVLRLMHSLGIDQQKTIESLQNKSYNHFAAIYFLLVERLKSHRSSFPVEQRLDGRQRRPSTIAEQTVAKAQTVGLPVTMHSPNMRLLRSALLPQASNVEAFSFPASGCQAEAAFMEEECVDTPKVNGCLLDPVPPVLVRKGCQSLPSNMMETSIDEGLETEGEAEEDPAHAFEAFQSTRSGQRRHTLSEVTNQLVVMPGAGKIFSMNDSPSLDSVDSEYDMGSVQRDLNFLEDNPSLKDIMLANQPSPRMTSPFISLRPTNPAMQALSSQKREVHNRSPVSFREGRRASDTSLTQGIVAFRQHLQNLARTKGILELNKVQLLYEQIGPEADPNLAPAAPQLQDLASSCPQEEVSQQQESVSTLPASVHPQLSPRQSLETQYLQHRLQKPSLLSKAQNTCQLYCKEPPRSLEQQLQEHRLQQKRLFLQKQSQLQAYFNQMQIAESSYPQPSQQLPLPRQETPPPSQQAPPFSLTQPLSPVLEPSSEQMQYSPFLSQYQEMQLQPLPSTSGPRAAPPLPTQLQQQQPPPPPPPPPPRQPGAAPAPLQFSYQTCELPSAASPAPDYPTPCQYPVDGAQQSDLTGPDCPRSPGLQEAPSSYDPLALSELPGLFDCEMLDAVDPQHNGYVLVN
Assay: radiometric filter-binding kinase assay
Conditions: compound 10.0 µM
Property measured: residual activity (%)
Write down the numeric answer in % and omit the unit.

- Structure smiles: "COc1cc(C(=O)N2CCOCC2)c(F)cc1Nc1ncc(C(F)(F)F)c(NC2CC2)n1"
  residual activity [%]: 34
- Structure smiles: "COC(=O)/C=C/C(=O)OC"
  residual activity [%]: 82

In: Can you share its residual activity? I mean this compound: CCn1c(-c2nonc2N)nc2cncc(CNC3CCNCC3)c21
Out: 95

In: Cool, now NCC(=O)Nc1ccc(-n2nc(C(F)(F)F)cc2-c2ccc3c(ccc4ccccc43)c2)cc1
Out: 79

In: Cool, now CNc1nc(-c2ccc3c(N)n[nH]c3c2)cc(N2C[C@@H](C(=O)NC3CCCCC3)CC[C@H]2C)n1
Out: 78

----------
Molecular target: UniProt Q02750
Sequence (Q02750 whole entry, looked up): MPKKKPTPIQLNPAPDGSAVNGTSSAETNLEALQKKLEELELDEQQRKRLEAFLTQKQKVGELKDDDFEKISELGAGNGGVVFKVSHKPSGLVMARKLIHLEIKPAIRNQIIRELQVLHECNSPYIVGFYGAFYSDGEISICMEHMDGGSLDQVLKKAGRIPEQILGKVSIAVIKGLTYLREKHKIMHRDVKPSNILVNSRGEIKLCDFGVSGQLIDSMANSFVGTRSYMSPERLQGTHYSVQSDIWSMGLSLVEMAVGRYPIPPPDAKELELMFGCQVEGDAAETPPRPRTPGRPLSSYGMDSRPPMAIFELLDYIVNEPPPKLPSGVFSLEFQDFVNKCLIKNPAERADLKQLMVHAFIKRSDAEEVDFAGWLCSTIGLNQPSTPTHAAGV
Assay: radiometric filter-binding kinase assay
Settings: compound 10.0 µM
Property measured: residual activity (%)
Write down the numeric answer in % and omit the unit.

These recorded examples may help you get a feel for the data.
- Compound: "N#Cc1c(O)c2c(-c3ccc(-c4ccccc4O)cc3)csc2[nH]c1=O"
  Unit of measurement: "%"
  Test value: 79
- Compound: "COc1cc2ncn(-c3cc(OCc4ccccc4S(C)(=O)=O)c(C#N)s3)c2cc1OC"
  Unit of measurement: "%"
  Test value: 75
- Compound: "CCCC(CCC)C(=O)O"
  Unit of measurement: "%"
  Test value: 89
- Compound: "Nc1cccc2c1CN(C1CCC(=O)NC1=O)C2=O (configuration not stated)"
  Unit of measurement: "%"
  Test value: 92
- Compound: "O=C(Nc1ccccc1-c1cn2c(CN3CCNCC3)csc2n1)c1cnc2ccccc2n1"
  Unit of measurement: "%"
  Test value: 87
- Compound: "COc1ccc2c(c1)c1c3c(c4c5ccccc5n(C)c4c1n2CC(O)CN(C)C)C(=O)NC3=O (configuration not stated)"
  Unit of measurement: "%"
  Test value: 16

In: Param readout = residual activity; param system = UniProt Q02750; param query = Cc1ccc(Sc2cnc(Nc3cccc(Br)n3)s2)cc1C(=O)N1CCN(C(=O)CN)CC1 ; response: value
Out: 40
